Listing of entries alongside the reported MIC.
test system: Sh. sonnei; experiment: Minimum inhibitory concentration by agar dilution, Sh. sonnei; format: cell-based; settings: Shigella sonnei; T.S.A. (trypticase soya medium, pH 7.3), 37° C., 18 hours; read-out: minimum inhibitory concentration (M.I.C.)
Please make sure the unit comes right after the number.

Smiles notation	Target	Observed measurement
CN1CCN(c2ncc3c(=O)c(C(=O)O)cn(C)c3n2)CC1	Sh. sonnei	3.1 mg/L
Cn1cc(C(=O)O)c(=O)c2cnc(N3CCN(CCO)CC3)nc21	Sh. sonnei	12.5 mg/L

Value sought: MIC, system Sh. sonnei, item CCn1cc(C(=O)O)c(=O)c2cnc(N3CCN(Cc4ccccc4)CC3)nc21 . Result: 12.5 mg/L

Value sought: MIC, system Sh. sonnei, item CCn1cc(C(=O)O)c(=O)c2cnc(N3CCN(C)CC3)nc21 . Result: 1.6 mg/L

Value sought: MIC, system Sh. sonnei, item CCn1cc(C(=O)O)c(=O)c2cnc(N3CCNCC3)nc21 . Result: 0.8 mg/L

Value sought: MIC, system Sh. sonnei, item CCn1cc(C(=O)O)c(=O)c2cnc(N3CCC(O)CC3)nc21 . Result: 12.5 mg/L

Value sought: MIC, system Sh. sonnei, item CCn1cc(C(=O)O)c(=O)c2cnc(N3CCN(CCO)CC3)nc21 . Result: 1.6 mg/L

----------
test system: Pr. morganii; test: Minimum inhibitory concentration by agar dilution, Pr. morganii; assay type: cell-based; conditions: Morganella morganii; N.A. (nutrient agar, pH 6.8), 37° C., 18 hours; Table I; read-out: minimum inhibitory concentration (M.I.C.)
Quantity: MIC (µg/mL)
Return type: number; implicit unit µg/mL.

Field: example entries. Status: answers known.
Compound	MIC / µg/mL
CCn1cc(C(=O)O)c(=O)c2cnc(N3CCNCC3)nc21 [Example VIII]	0.8
CCn1cc(C(=O)O)c(=O)c2cnc(N3CCC(O)CC3)nc21 [IV]	0.4
CCn1cc(C(=O)O)c(=O)c2cnc(N3CCN(Cc4ccccc4)CC3)nc21 [Example VII]	3.1
CN1CCN(c2ncc3c(=O)c(C(=O)O)cn(C)c3n2)CC1 [Example X]	3.1
CCn1cc(C(=O)O)c(=O)c2cnc(N3CCN(CCO)CC3)nc21 [Example VI]	1.6
CCn1cc(C(=O)O)c(=O)c2cnc(N3CCN(C)CC3)nc21 [Example V]	0.8

Now examine the next entry.
Input Cn1cc(C(=O)O)c(=O)c2cnc(N3CCN(CCO)CC3)nc21 [Example XI] . Output MIC: 3.1

----------
system: Salm. typhi; test: Minimum inhibitory concentration by agar dilution, Salm. typhi; assay type: cell-based; conditions: Salmonella enterica, 18 h, pH 7.3, read-out: minimum inhibitory concentration (M.I.C.)
Rule for this label: Yes means MIC is less than 10 µg/mL; No means MIC is at least 10 µg/mL.

Study these solved cases before continuing.
Smiles notation	Group label
Cn1cc(C(=O)O)c(=O)c2cnc(N3CCN(CCO)CC3)nc21	No
CCn1cc(C(=O)O)c(=O)c2cnc(N3CCC(O)CC3)nc21	No
CN1CCN(c2ncc3c(=O)c(C(=O)O)cn(C)c3n2)CC1	No
CCn1cc(C(=O)O)c(=O)c2cnc(N3CCN(Cc4ccccc4)CC3)nc21	No
CCn1cc(C(=O)O)c(=O)c2cnc(N3CCN(CCO)CC3)nc21	Yes

stdin: Field: below-cutoff. Rule: recorded MIC strictly less than 10 µg/mL. Subject: CCn1cc(C(=O)O)c(=O)c2cnc(N3CCN(C)CC3)nc21
stdout: Yes

stdin: Field: below-cutoff. Rule: recorded MIC strictly less than 10 µg/mL. Subject: CCn1cc(C(=O)O)c(=O)c2cnc(N3CCNCC3)nc21
stdout: Yes

----------
system: Bord. bronchiseptica; assay: Minimum inhibitory concentration by agar dilution, Bord. bronchiseptica; assay type: cell-based; settings: Bordetella bronchiseptica; N.A. (nutrient agar, pH 6.8), 37° C., 18 hours; Table I; read-out: minimum inhibitory concentration (M.I.C.)
Quantity: MIC (µg/mL)
Return type: number; implicit unit µg/mL.

Field: example entries. Status: answers known.
Compound	Target	MIC, µg/mL
CCn1cc(C(=O)O)c(=O)c2cnc(N3CCN(Cc4ccccc4)CC3)nc21 [Example VII]	Bord. bronchiseptica	3.1
CCn1cc(C(=O)O)c(=O)c2cnc(N3CCN(C)CC3)nc21 [Example V]	Bord. bronchiseptica	50
CCn1cc(C(=O)O)c(=O)c2cnc(N3CCNCC3)nc21 [Example VIII]	Bord. bronchiseptica	12.5
CCn1cc(C(=O)O)c(=O)c2cnc(N3CCN(CCO)CC3)nc21 [Example VI]	Bord. bronchiseptica	50
CN1CCN(c2ncc3c(=O)c(C(=O)O)cn(C)c3n2)CC1 [Example X]	Bord. bronchiseptica	25

Now examine the next entry.
Input CCn1cc(C(=O)O)c(=O)c2cnc(N3CCC(O)CC3)nc21 [IV] . Output MIC: 100

----------
tested on: Salm. typhi; test: Minimum inhibitory concentration by agar dilution, Salm. typhi; format: cell-based; conditions: Salmonella enterica, 18 h, pH 6.8, read-out: minimum inhibitory concentration (M.I.C.)
Listing of entries alongside the reported MIC.
Return type: number; implicit unit µg/mL.

Field: example entries. Status: answers known.
Smiles notation	MIC (µg/mL)
CN1CCN(c2ncc3c(=O)c(C(=O)O)cn(C)c3n2)CC1	3.1
CCn1cc(C(=O)O)c(=O)c2cnc(N3CCC(O)CC3)nc21	6.2
CCn1cc(C(=O)O)c(=O)c2cnc(N3CCN(Cc4ccccc4)CC3)nc21	1.6
CCn1cc(C(=O)O)c(=O)c2cnc(N3CCN(CCO)CC3)nc21	12.5
Cn1cc(C(=O)O)c(=O)c2cnc(N3CCN(CCO)CC3)nc21	6.2
CCn1cc(C(=O)O)c(=O)c2cnc(N3CCNCC3)nc21	6.2

Now examine the next entry.
Value sought: MIC, system Salm. typhi, item CCn1cc(C(=O)O)c(=O)c2cnc(N3CCN(C)CC3)nc21 . Result: 3.1

----------
tested on: Streptococcus; test: Minimum inhibitory concentration by agar dilution, Streptococcus Group A; assay type: cell-based; conditions: 18 h; agar medium, N.A.; Table II; read-out: minimum inhibitory concentration
Quantity: MIC (µg/mL)
Return type: number; implicit unit µg/mL.

Compound	MIC [µg/mL]
C=CCN1CCN(c2ncc3c(=O)c(C(=O)O)cn(CC)c3n2)CC1 [XIV]	1.6

Input CCN1CCN(c2ncc3c(=O)c(C(=O)O)cn(CC)c3n2)CC1 [Example XII] . Output MIC: 3.1

Input CCn1cc(C(=O)O)c(=O)c2cnc(N3CCN(Cc4ccc(OC)cc4)CC3)nc21 [XVI] . Output MIC: 0.8

Input CCCN1CCN(c2ncc3c(=O)c(C(=O)O)cn(CC)c3n2)CC1 [XIII] . Output MIC: 6.2

Input CCn1cc(C(=O)O)c(=O)c2cnc(N3CCN(Cc4ccc(Cl)cc4)CC3)nc21 [XV] . Output MIC: 1.6

----------
test system: Esch. Coli 95; experiment: Minimum inhibitory concentration by agar dilution, Esch. Coli 95; format: cell-based; details: Escherichia coli; N.A. (nutrient agar, pH 6.8), 37° C., 18 hours; Table I; read-out: minimum inhibitory concentration (M.I.C.)
Quantity: MIC (µg/mL)
Return type: number; implicit unit µg/mL.

Field: example entries. Status: answers known.
Smiles notation	Target	Observed measurement
CCn1cc(C(=O)O)c(=O)c2cnc(N3CCN(C)CC3)nc21	Esch. Coli 95	0.8
CCn1cc(C(=O)O)c(=O)c2cnc(N3CCN(Cc4ccccc4)CC3)nc21	Esch. Coli 95	1.6
CN1CCN(c2ncc3c(=O)c(C(=O)O)cn(C)c3n2)CC1	Esch. Coli 95	1.6
CCn1cc(C(=O)O)c(=O)c2cnc(N3CCN(CCO)CC3)nc21	Esch. Coli 95	1.6
CCn1cc(C(=O)O)c(=O)c2cnc(N3CCNCC3)nc21	Esch. Coli 95	0.8
Cn1cc(C(=O)O)c(=O)c2cnc(N3CCN(CCO)CC3)nc21	Esch. Coli 95	1.6

Now examine the next entry.
Input CCn1cc(C(=O)O)c(=O)c2cnc(N3CCC(O)CC3)nc21 . Output MIC: 6.2

----------
Tested on: Pr. vulgaris
Experiment: Minimum inhibitory concentration by agar dilution, Pr. vulgaris
Assay type: cell-based
Settings: Proteus vulgaris; T.S.A. (trypticase soya medium, pH 7.3), 37° C., 18 hours; read-out: minimum inhibitory concentration (M.I.C.)
Source text: (a) Trypticase soya medium (T.S.A.), which is very suitable for culturing the majority of microorganisms; it has the following composition: (b) Ordinarily nutrient agar (N.A.), which is less rich in nutrients, corresponds to the following formulation: […] Table (II) gives the minimum inhibitory concentrations of the compounds of Examples XII to XVI, determined on the agar medium, N.A., and expressed in μg/cm^3.
Listing of entries alongside the reported MIC.
Return type: number; implicit unit µg/mL.

Field: example entries. Status: answers known.
Smiles notation	Unit descriptor	MIC
CCn1cc(C(=O)O)c(=O)c2cnc(N3CCNCC3)nc21	µg/mL	1.6
CCn1cc(C(=O)O)c(=O)c2cnc(N3CCN(CCO)CC3)nc21	µg/mL	6.2
CN1CCN(c2ncc3c(=O)c(C(=O)O)cn(C)c3n2)CC1	µg/mL	25
CCn1cc(C(=O)O)c(=O)c2cnc(N3CCN(C)CC3)nc21	µg/mL	6.2
Cn1cc(C(=O)O)c(=O)c2cnc(N3CCN(CCO)CC3)nc21	µg/mL	50

Input CCn1cc(C(=O)O)c(=O)c2cnc(N3CCN(Cc4ccccc4)CC3)nc21 . Output MIC: 50
